# Test system: T1, human CD33 extracellular domain with 6xHis-tag (human, UniProt P20138 18-259)
# T1 construct: Bought (R&D Systems, Acro Biosystems); also called huCD33-His; huCD33(ECD)-His
# T1 sequence (P20138 other isoform, or with tags, fused parts or gaps): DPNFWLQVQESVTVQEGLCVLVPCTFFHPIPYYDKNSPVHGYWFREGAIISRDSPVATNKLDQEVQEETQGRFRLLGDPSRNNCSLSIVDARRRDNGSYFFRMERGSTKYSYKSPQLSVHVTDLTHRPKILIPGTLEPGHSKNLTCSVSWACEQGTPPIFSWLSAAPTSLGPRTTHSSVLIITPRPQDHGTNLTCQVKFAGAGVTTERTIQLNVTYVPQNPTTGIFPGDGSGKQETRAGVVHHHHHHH
# Assay info: BLI (Octet Red96e), antibody on anti-huFc sensor, huCD33-His as analyte, 1:1 fit
Measure: kon (M⁻¹ s⁻¹)
Just the number please, in M⁻¹ s⁻¹, no unit attached.

# count of solved cases: 3
[[record]]
binder = "TDI-Y-006 (antibody, V domains shown, also called 3P14 (recombinant, human IgG1 constant region)) VH: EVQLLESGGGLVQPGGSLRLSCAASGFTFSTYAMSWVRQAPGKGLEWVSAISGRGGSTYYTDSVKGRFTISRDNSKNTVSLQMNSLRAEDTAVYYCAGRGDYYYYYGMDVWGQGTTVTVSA VL: DIVMTQSPLSSPVTLGQPASFSCRSSQSLVYSDGNTYLSWLQQRPGQPPRLLIYKISNRFSGVPDRFSGSGAGTDFTLKISRVEAEDVGVYYCMQSTQFPHTFGQGTKLEIK"
experimental_result = 296000

[[record]]
binder = "H195 (lintuzumab) (antibody, V domains shown) VH: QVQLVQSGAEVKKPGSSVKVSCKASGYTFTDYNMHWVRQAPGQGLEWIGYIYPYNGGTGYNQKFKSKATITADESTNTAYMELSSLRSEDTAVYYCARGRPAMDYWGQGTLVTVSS VL: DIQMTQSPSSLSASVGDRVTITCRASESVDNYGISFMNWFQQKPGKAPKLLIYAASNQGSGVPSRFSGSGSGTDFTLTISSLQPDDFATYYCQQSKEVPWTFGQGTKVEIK"
experimental_result = 358000

[[record]]
binder = "TDI-Y-007 (antibody, V domains shown, also called 4B2 (recombinant, human IgG1 constant region)) VH: EVHLLESGGGLVQPGGSLRLSCAASGFIFSSNAMSWVRQAPGKGLEWVSAISGYGGNTYYADSVKGRFTISRDNSKNTLYLQMNSLRAEDTAVYYCAKWGTYIVGATGDYWGQGTLVTVSS VL: QSALTQPPSASGSPGQSVTISCTGTSNDVGGYNYVSWYQQHPGKAPKLLIYEVSKRPSGVPDRFSGSQSGNTASLTVSGLQAEDEADYYCSSYAGSNNWVFGGGTKLTVL"
experimental_result = 464000


Now, please, on to the next binder.
Enquiry: What does the record list as kon for 1J19 (recombinant, human IgG1 constant region) (antibody, V domains shown) VH: QVQLQQSGPGLVKPSQTLSLTCAISGDSVSSNSAAWNWIRQSPSRGLEWLGRTYFRSKWYNVYAVSVKSRITINPDTSKNQFSLQLNSVTPEDTAVYYCASEGGSYYDHWGQGTLVTVSS VL: DIQMTQSPSSVSASVGDRVTITCRASQGISNWLTWYQQKPGKAPKLLIYAASSLQSGVPSRFSGSGSGTDFTLTISSLQPEDFATYYCQQADSFPFTFGPGTKVDIK ?
Return: 266000
